B1: CPEB3 Ribozyme (parent)
chain: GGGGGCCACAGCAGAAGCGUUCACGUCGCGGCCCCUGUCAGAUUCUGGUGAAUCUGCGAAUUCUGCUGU

Variants of: B1
test_summary: self-cleavage, relative activity (ratio to wild type); higher = more cleavage; co-transcriptional
What self-cleavage was measured for each of the following?
Output spec: single numeric token, no unit.

Quick note, self-cleavage for C24G G30A landed at 0.308

Quick note, self-cleavage for C12G U44C landed at 0.488

Quick note, self-cleavage for A42G U55C landed at 0.492

Values were extracted from the RNAGym collection of RNA variant scans (doi:10.7554/elife.80360).
